Where do the numbers come from? From paper PMC9482650.

# TARGET OR TEST SYSTEM: T1, DLG3_3, Q92796
# T1 sequence (Q92796 374-475, limits assumed, looked up): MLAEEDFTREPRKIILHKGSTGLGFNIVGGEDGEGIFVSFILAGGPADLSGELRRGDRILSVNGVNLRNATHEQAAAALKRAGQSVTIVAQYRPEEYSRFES
# PROCEDURE DETAILS: holdup assay
# Set-up: key: below the threshold = too weak to quantify, mostly under pKd 3.1 to 4
# MEASUREMENT PARAMETERS: plain residues with an end cap or a label only (N-terminal biotin on a linker: ahx)
Could you please report measured pKd for the items listed next?
A bare number is all that is needed in reply.

INPUT: Query: pKd; subject: TVICWPGSLV [LNX2, Q8N448]
OUTPUT: 3.95

INPUT: Query: pKd; subject: LSDPSVSTVV [GRIN1, Q05586]
OUTPUT: 3.57
